# Target or system: DLL3 endogenously expressed on NCI-H82 cells (UniProt Q9NYJ7)
# Sequence (Q9NYJ7 27-618): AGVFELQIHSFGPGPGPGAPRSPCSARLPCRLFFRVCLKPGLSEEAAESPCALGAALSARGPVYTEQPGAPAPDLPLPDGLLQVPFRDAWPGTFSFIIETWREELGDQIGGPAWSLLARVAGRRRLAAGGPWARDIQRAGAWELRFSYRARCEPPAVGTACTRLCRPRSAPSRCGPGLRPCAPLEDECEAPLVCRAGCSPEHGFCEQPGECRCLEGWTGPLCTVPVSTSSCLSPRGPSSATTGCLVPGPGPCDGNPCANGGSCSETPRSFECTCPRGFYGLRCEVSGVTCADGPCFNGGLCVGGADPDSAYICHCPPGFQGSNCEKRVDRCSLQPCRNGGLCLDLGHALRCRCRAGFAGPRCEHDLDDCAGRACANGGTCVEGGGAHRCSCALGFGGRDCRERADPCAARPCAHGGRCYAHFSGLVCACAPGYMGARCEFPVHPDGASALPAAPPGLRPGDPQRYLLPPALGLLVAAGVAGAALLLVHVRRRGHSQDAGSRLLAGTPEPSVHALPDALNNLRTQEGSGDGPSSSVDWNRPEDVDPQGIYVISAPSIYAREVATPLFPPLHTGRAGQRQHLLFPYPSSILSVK
# Assay procedure: FACS on NCI-H82 cells; antibody 0.00128 nM
Measurement type: MFI
Simply state the number, no unit and no words.

# input binder: Hab006VL1VH4-hFc (scFv, part only; not given: VL-VH linker and human IgG1 Fc, V domains shown, not shown: another chain or arm of the molecule; a dimerising Fc or GST; small tags and cut ends) VL: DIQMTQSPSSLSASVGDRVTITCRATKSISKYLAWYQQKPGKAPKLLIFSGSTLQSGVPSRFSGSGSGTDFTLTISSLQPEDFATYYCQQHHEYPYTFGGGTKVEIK VH: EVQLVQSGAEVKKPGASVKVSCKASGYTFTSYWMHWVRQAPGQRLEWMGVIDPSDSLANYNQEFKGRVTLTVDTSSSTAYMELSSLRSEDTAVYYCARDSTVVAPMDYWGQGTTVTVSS ; wanted: its MFI
126

# input binder: Hab015VL4VH1a-hFc (scFv, part only; not given: scFv linker and human IgG1 Fc, V domains shown, not shown: another chain or arm of the molecule; a dimerising Fc or GST; small tags and cut ends) VL: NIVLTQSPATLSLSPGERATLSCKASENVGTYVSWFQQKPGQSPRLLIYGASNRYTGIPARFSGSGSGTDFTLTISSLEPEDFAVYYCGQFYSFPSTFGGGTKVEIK VH: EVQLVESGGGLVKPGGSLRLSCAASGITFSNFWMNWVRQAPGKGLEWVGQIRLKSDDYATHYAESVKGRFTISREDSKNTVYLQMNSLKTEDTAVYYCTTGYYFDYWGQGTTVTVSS ; wanted: its MFI
118
